Tested on: Saccharomyces cerevisiae BY4741 SeMeCo community
TEST_METHOD_NOTES: z-score of subpopulation abundance vs DMSO median, subpopulation auxotrophic for HLUM; higher = larger share of this subpopulation than in DMSO controls
ASSAY_SETUP: 10 µM; 24 h; SM minimal medium; subpopulation (auxotrophy): HLUM
Structures can show the parent of a compound that is named as a salt.
// reported z-score of subpopulation abundance for each item listed
In your answer, state the number alone without any accompanying words.

{"COMPOUND": "CO/N=C(\\C(=O)N[C@@H]1C(=O)N2C(C(=O)O)=C(CSC(=O)c3ccco3)CS[C@H]12)c1csc(N)n1 [Ceftiofur HCl]", "z-score of subpopulation abundance": 0.19}
{"COMPOUND": "CC[C@@H]1/C=C(\\C)C[C@H](C)C[C@H](OC)[C@H]2O[C@@](O)(C(=O)C(=O)N3CCCC[C@H]3C(=O)O[C@H](/C(C)=C/[C@@H]3CC[C@@H](O)[C@H](OC)C3)[C@H](C)[C@@H](O)CC1=O)[C@H](C)C[C@@H]2OC", "z-score of subpopulation abundance": 2.95}
{"COMPOUND": "COCCOC(=O)C1=C(C)NC(C)=C(C(=O)OC/C=C/c2ccccc2)C1c1cccc([N+](=O)[O-])c1 (stereo not given)", "z-score of subpopulation abundance": -0.48}

Request the reported z-score of subpopulation abundance associated with N/C(=N\N=C\c1ccc(Cl)cc1)N/N=C/c1ccc(Cl)cc1 [Robenidine Hydrochoride] 18.1

Request the reported z-score of subpopulation abundance associated with CN1CCN(C2=Nc3ccccc3Oc3ccc(Cl)cc32)CC1 [Loxapine Succinate] 0.78

Request the reported z-score of subpopulation abundance associated with Nc1nc2[nH]cc(CCc3ccc(C(=O)N[C@@H](CCC(=O)O)C(=O)O)cc3)c2c(=O)[nH]1 -1.01

Request the reported z-score of subpopulation abundance associated with Cc1cc(C)nc(NS(=O)(=O)c2ccc(N)cc2)n1 [Sulfamethazine] 0.42

Request the reported z-score of subpopulation abundance associated with C[C@@H](O)[C@H]1C(=O)N2C(C(=O)O)=C(SCCNC=N)C[C@H]12 -0.14

###

System: Saccharomyces cerevisiae BY4741 SeMeCo community
TEST_METHOD_NOTES: z-score of subpopulation abundance vs DMSO median, subpopulation auxotrophic for H; higher = larger share of this subpopulation than in DMSO controls
ASSAY_SETUP: 10 µM; 24 h; SM minimal medium; subpopulation (auxotrophy): H
Counter-ions that a name gives are not always drawn.
// reported z-score of subpopulation abundance for each item listed

Example molecules with recorded z-score of subpopulation abundance:
{"MOLECULE": "Oc1cccc(O)c1 [Resorcinol]", "RESULT": -0.05}
{"MOLECULE": "CCOc1cc(N)c([N+](=O)[O-])cc1C(=O)NC1CCN(CC2CC=CCC2)CC1 (stereo unspecified) [Cinitapride Hydrogen Tartrate]", "RESULT": -0.46}
{"MOLECULE": "CN(C)CCOc1ccc(/C(=C(/CCCl)c2ccccc2)c2ccccc2)cc1 [Toremifene Citrate]", "RESULT": 2.17}
{"MOLECULE": "CN1CCC(=C2c3ccccc3CCc3sccc32)CC1 [Pizotifen Malate]", "RESULT": -0.02}
{"MOLECULE": "CC[C@H]1OC(=O)[C@H](C)[C@@H](O[C@H]2C[C@@](C)(OC)[C@@H](O)[C@H](C)O2)[C@H](C)[C@@H](O[C@@H]2O[C@H](C)C[C@H](N(C)C)[C@H]2O)[C@](C)(O)C[C@@H](C)CN(C)[C@H](C)[C@@H](O)[C@]1(C)O [Azithromycin]", "RESULT": -0.15}

Request the reported z-score of subpopulation abundance associated with COc1ccc2cc3[n+](cc2c1OC)CCc1cc2c(cc1-3)OCO2 [Berberine Sulfate] -0.31

Request the reported z-score of subpopulation abundance associated with C[C@H](Nc1ncnc2nc[nH]c12)c1cc2cccc(Cl)c2c(=O)n1-c1ccccc1 [Duvelisib (IPI-145, INK1197)] 0.93

Request the reported z-score of subpopulation abundance associated with CN(C)c1cc(NC(=O)CNC(C)(C)C)c(O)c2c1CC1CC3C(N(C)C)C(=O)C(C(N)=O)=C(O)C3(O)C(=O)C1=C2O (stereo unspecified) [Tigecycline] 0.59

Just for reference, the supplement of paper PMC8975748 is where these values come from.
